SYSTEM: Tyrosine-protein kinase Blk (Homo sapiens) (UniProt P51451)
Sequence (P51451 2-505 limits assumed): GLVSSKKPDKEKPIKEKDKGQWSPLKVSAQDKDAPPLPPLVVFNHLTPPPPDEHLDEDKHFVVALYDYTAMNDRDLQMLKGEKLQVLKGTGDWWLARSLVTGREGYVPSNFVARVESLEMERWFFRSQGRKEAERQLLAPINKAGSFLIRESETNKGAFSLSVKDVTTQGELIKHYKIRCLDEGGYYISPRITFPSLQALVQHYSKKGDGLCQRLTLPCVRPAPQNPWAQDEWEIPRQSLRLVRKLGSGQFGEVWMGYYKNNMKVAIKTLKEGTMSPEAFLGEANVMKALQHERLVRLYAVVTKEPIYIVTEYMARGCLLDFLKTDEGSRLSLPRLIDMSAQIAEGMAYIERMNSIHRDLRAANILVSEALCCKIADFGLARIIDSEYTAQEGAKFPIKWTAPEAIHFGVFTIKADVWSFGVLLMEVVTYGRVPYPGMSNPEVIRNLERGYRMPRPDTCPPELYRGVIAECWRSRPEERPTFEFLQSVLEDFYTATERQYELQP
TEST PARAMETERS: BaF3
Description: Inhibition of TEL-BLK (unknown origin) expressed in mouse BA/F3 cells assessed as growth inhibition after 72 hrs by CellTiter-Glo or CCK-8 assay
MEASUREMENT NAME: GI50 (nM)
Please give a number only; it is taken to be in nM.

Answered cases to consult:
Cc1cn(-c2cc(NC(=O)c3ccc(C)c(Nc4nccc(-c5cccnc5)n4)c3)cc(C(F)(F)F)c2)cn1 : 1300
Cc1nc(Nc2ncc(C(=O)Nc3c(C)cccc3Cl)s2)cc(N2CCN(CCO)CC2)n1 : 5
CNc1nc(Nc2ccc(C)c(N)c2)ncc1C(=O)Nc1cc(NC(=O)c2cccc(C(F)(F)F)c2)ccc1C : 1100

# next compound below
Please report the recorded GI50 for `Cc1ccc(NC(=O)c2ccc(CN3CCN(C)CC3)cc2)cc1Nc1nccc(-c2cccnc2)n1` .
4100

----------
Below, each entry is listed with its recorded GI50.
SYSTEM: Discoidin domain-containing receptor 2 (Homo sapiens)
Sequence (whole entry): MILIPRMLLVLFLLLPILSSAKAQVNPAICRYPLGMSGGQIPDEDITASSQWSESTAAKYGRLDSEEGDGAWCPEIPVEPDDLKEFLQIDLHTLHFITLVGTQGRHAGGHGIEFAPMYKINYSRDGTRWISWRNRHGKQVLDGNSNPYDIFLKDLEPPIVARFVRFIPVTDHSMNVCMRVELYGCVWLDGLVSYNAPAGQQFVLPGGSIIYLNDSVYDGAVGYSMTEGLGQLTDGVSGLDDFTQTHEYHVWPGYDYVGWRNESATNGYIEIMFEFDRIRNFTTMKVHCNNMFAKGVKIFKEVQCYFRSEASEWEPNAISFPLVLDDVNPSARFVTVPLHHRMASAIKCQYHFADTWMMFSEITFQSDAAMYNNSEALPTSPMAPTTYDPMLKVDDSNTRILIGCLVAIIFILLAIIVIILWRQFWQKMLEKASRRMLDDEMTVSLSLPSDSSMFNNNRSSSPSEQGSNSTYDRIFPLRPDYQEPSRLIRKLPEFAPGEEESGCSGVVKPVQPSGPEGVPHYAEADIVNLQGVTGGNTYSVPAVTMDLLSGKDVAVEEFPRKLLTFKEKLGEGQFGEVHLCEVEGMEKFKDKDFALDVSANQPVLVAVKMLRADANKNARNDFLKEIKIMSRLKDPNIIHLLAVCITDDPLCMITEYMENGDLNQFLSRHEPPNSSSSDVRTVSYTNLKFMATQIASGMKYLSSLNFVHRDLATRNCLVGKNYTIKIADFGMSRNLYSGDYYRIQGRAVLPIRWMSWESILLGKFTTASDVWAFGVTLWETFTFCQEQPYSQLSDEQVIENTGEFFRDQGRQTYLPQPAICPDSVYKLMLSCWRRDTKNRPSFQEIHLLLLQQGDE
TEST PARAMETERS: BaF3
Description: Inhibition of TEL-DDR2 (unknown origin) expressed in mouse BA/F3 cells assessed as growth inhibition after 72 hrs by CellTiter-Glo or CCK-8 assay
Numbers only here, please. The scale is µM.

Some compounds with recorded GI50:
Cc1nc(Nc2ncc(C(=O)Nc3c(C)cccc3Cl)s2)cc(N2CCN(CCO)CC2)n1 : 3
Cc1ccc(NC(=O)c2ccc(CN3CCN(C)CC3)cc2)cc1Nc1nccc(-c2cccnc2)n1 : 7.7

--- query ---
Need GI50 of `Cc1cn(-c2cc(NC(=O)c3ccc(C)c(Nc4nccc(-c5cccnc5)n4)c3)cc(C(F)(F)F)c2)cn1` , thanks.
1.4

----------
ASSAY PROCEDURE: Antiproliferative activity against human MOLM14 cells assessed as cell viability after 72 hrs by CellTiter-Glo or CCK-8 assay
Format: functional
TEST PARAMETERS: MOLM-14, 72 h
MEASUREMENT NAME: GI50

Recorded GI50, per entry:
Cc1nc(Nc2ncc(C(=O)Nc3c(C)cccc3Cl)s2)cc(N2CCN(CCO)CC2)n1 [DASATINIB] : 2.3 µM
Cc1cn(-c2cc(NC(=O)c3ccc(C)c(Nc4nccc(-c5cccnc5)n4)c3)cc(C(F)(F)F)c2)cn1 [NILOTINIB] : > 10 µM
CNc1nc(Nc2ccc(C)c(N)c2)ncc1C(=O)Nc1cc(NC(=O)c2cccc(C(F)(F)F)c2)ccc1C : > 10 µM

Param item = Cc1ccc(NC(=O)c2ccc(CN3CCN(C)CC3)cc2)cc1Nc1nccc(-c2cccnc2)n1 [IMATINIB] ; retrieve measured GI50.
> 10 µM

----------
ASSAY PROCEDURE: AUC(0 to t) in Sprague-Dawley rat at 10 mg/kg, po
Assay type: ADME, organism-based
TEST PARAMETERS: in vivo
MEASUREMENT NAME: AUC(0-t) (ng·h/mL)
Report only the number, with the unit ng·h/mL understood.

Endpoint output: AUC(0-t) of `CNc1nc(Nc2ccc(C)c(N)c2)ncc1C(=O)Nc1cc(NC(=O)c2cccc(C(F)(F)F)c2)ccc1C` . Value?
1720

----------
ASSAY PROCEDURE: AUC(0 to infinity) in Sprague-Dawley rat at 1 mg/kg, iv
Type: ADME, organism-based
Set-up: dose 1 mg/kg, route intravenous, time infinity
TEST PARAMETERS: in vivo
MEASUREMENT NAME: AUC(0-inf) (ng·h/mL)
Could you give me the number in ng·h/mL? Just the number is fine.

Given the compound `CNc1nc(Nc2ccc(C)c(N)c2)ncc1C(=O)Nc1cc(NC(=O)c2cccc(C(F)(F)F)c2)ccc1C` , what is its reported AUC(0-inf)?
721

----------
ASSAY PROCEDURE: Antiproliferative activity against mouse BA/F3 cells assessed as cell viability after 72 hrs by CellTiter-Glo or CCK-8 assay
Format: cell-based, BaF3
MEASUREMENT NAME: GI50 at 72 h

Cc1cn(-c2cc(NC(=O)c3ccc(C)c(Nc4nccc(-c5cccnc5)n4)c3)cc(C(F)(F)F)c2)cn1 : 2.1 µM
CNc1nc(Nc2ccc(C)c(N)c2)ncc1C(=O)Nc1cc(NC(=O)c2ccc(OC)cc2)ccc1C : > 10 µM
CNc1nc(Nc2ccc(C)c(N)c2)ncc1C(=O)Nc1cc(NC(=O)c2cccc(OC)c2)ccc1C : > 10 µM
CNc1nc(Nc2ccc(C)c(N)c2)ncc1C(=O)Nc1cc(NC(=O)c2ccc(OC)c(OC)c2)ccc1C : > 10 µM
Cc1ccc(NC(=O)c2ccc(CN3CCN(C)CC3)cc2)cc1Nc1nccc(-c2cccnc2)n1 : 6.7 µM

// lookup GI50 at 72 h for `Cc1ccc(Nc2ncc(C(=O)Nc3cc(NC(=O)c4cccc(C(F)(F)F)c4)ccc3C)c(N(C)C)n2)cc1N`
> 10 µM

Quick one: GI50 at 72 h for `Cc1ccc(Nc2ncc3c(n2)N(C)C(=O)N(c2cc(NC(=O)c4cccc(C(F)(F)F)c4)ccc2C)C3)cc1N` ?
0.44 µM

Recorded GI50 at 72 h of `CNc1nc(Nc2ccc(C)c(N)c2)ncc1C(=O)Nc1cc(NC(=O)c2cccc(C(F)(F)F)c2)ccc1C` , please.
> 10 µM

Consider the compound shown here: `Cc1nc(Nc2ncc(C(=O)Nc3c(C)cccc3Cl)s2)cc(N2CCN(CCO)CC2)n1` What is its recorded GI50 at 72 h?
> 10 µM

Give the measured GI50 at 72 h of `Cc1ccc(NC(=O)c2cccc(C(F)(F)F)c2)cc1N1Cc2cnc(Nc3ccc(C)c(C(F)(F)F)c3)nc2N(C)C1=O` .
> 10 µM

Return reported GI50 at 72 h; argument: `Cc1ccc(Nc2ncc(C(=O)Nc3cc(NC(=O)c4cccc(C(F)(F)F)c4)ccc3C)cn2)cc1N`
> 10 µM

Form field: reported GI50 at 72 h of `CNc1nc(Nc2ccc(C)c(N)c2)ncc1C(=O)Nc1cc(NC(=O)c2cc(OC)cc(OC)c2)ccc1C`
> 10 µM

Requested field: GI50 at 72 h. Item: `Cc1ccc(NC(=O)c2cccc(C(F)(F)F)c2)cc1N1Cc2cnc(OC3CCNCC3)nc2N(C)C1=O`
> 10 µM

Dear colleague, I am looking for the recorded GI50 at 72 h of the following compound: `Cc1ccc(NC(=O)c2cccc(C(F)(F)F)c2)cc1N1Cc2cnc(O[C@H]3CCN(C(=O)OC(C)(C)C)C3)nc2N(C)C1=O`
8.38 µM

# GI50 at 72 h lookup, item `CNc1nc(Nc2ccc(C)c(N)c2)ncc1C(=O)Nc1cc(NC(=O)c2ccc3c(c2)OCCO3)ccc1C`
> 10 µM

Which GI50 at 72 h reading was recorded for the compound `Cc1ccc(Nc2ncc3c(n2)N(C)C(=O)N(c2cc(NC(=O)c4cccc(-c5ccccc5)c4)ccc2C)C3)cc1N` ?
> 10 µM

----------
ASSAY PROCEDURE: Antiproliferative activity against human MEG01 cells assessed as cell viability after 72 hrs by CellTiter-Glo or CCK-8 assay
Format: functional
TEST PARAMETERS: MEG-01, 72 h
MEASUREMENT NAME: GI50 (nM)
Give just the number in nM; leave the unit off.

Solved entries (count: 2):
Cc1cn(-c2cc(NC(=O)c3ccc(C)c(Nc4nccc(-c5cccnc5)n4)c3)cc(C(F)(F)F)c2)cn1 : 16
CNc1nc(Nc2ccc(C)c(N)c2)ncc1C(=O)Nc1cc(NC(=O)c2cccc(C(F)(F)F)c2)ccc1C : 16

Requested read-out: GI50. Entry: `Cc1ccc(NC(=O)c2ccc(CN3CCN(C)CC3)cc2)cc1Nc1nccc(-c2cccnc2)n1`
240
